Assay System: human OX1 receptors (Homo sapiens)
Construct: expressed in transfected cells; host or cells: CHO cells
Sequence (O43613 1-425): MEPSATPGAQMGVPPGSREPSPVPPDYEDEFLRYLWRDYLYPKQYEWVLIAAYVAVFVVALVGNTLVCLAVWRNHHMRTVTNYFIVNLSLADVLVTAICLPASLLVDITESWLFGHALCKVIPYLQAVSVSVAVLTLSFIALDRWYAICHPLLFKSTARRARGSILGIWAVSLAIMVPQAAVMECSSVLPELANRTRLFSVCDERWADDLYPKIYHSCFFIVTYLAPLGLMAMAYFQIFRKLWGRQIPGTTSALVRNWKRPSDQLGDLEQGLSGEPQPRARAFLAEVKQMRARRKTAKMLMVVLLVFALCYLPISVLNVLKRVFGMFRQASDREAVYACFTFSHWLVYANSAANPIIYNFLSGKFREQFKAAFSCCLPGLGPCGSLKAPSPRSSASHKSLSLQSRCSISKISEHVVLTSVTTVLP
Measurement Protocol: antagonistic activity against human OX1 receptor, calcium fluorimetry (Fluo-4NW) in transfected CHO cells
Assay type: cell-based
Experimental Conditions: CHO cells transfected with human recombinant OX1, activated with orexin-A 3 nM; pKb = co-logarithm of apparent dissociation constant (modified Cheng Prusoff)
# Kb per record follows
Supply the numeric figure in nM, leaving out any unit text.

| Given Smiles | Observed Result |
| --- | --- |
| O=C(c1cc(Cl)ccc1-c1ncccn1)N1[C@H](CNc2nccc(C(F)(F)F)n2)CC[C@H]2C[C@H]21 | 1 |

Prompt line: I am curious: what Kb value has been reported for Cc1nc(C(=O)N2[C@H](CNc3ccc(C(F)(F)F)cn3)CC[C@@H]3C[C@@H]32)c(-c2ccccc2)s1 ?
Response line: 2.51

Prompt line: I am curious: what Kb value has been reported for O=C(c1cc(Cl)ccc1-c1ncccn1)N1[C@H](CNc2ccc(C(F)(F)F)cn2)CC[C@H]2C[C@H]21 ?
Response line: 2.51

Data origin: patent US9174977B2
